FYI, the data here is from patent US20240400677A1.

# system: T1, extracellular binding domain of human SIRPγ (plate-coated) (human, UniProt Q9P1W8 29-360)
# T1 construct: also called hSIRPγ
# T1 sequence (Q9P1W8 29-360 limits assumed): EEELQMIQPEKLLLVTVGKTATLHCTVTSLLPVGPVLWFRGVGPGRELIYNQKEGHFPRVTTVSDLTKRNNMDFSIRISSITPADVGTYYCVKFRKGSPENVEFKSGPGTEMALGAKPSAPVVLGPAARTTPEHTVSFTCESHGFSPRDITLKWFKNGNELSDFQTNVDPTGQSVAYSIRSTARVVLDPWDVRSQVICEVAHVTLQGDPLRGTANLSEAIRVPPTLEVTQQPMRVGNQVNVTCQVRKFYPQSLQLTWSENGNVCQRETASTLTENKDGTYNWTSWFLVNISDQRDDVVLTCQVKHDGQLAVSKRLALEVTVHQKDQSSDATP
# assay_procedure: ELISA, coated SIRP ECD (2 µg/mL), anti-human IgG, luminescence
Assign EC50 (read off the curve) to each entry below.

-- ask Which EC50 (read off the curve) reading was recorded for the binder Antibody 71 (antibody, V domains shown) VH: QVQLVQSGAEVKKPGASVKVSCKASGYTFTSYYIHWVRQAPGQGLEWMGTINPSGGSTSYAQKFQGRVTMTRDTSTSTVYMELSSLRSEDTAVYYCARETSRWLRDYYYGMDVWGQGTTVTVSS VL: DIVMTQSPLSLPVTPGEPASISCRSSQSLLHSNGYNYLDWYLQKPGQSPQLLIYDASSLESGVPDRFSGSGSGTDFTLKISRVEAEDVGVYYCMQGTHWPLTFGGGTKVEIK ?
-- reply ~0.02 µg/mL

-- ask Which EC50 (read off the curve) reading was recorded for the binder Antibody 74 (antibody, V domains shown) VH: QVQLVQSGAEVKKPGASVKVSCKASGGTFSNYGFSWVRQAPGQGLEWMGWMSPSSGNTGYAQKFQGRVTMTRDTSTSTVYMELSSLRSEDTAVYYCARERSGSYFDYWGQGTLVTVSS VL: EIVMTQSPATLSVSPGERATLSCRASQSVSSYLAWYQQKPGQAPRLLIYGTSTRATGIPARFSGSGSGTEFTLTISSLQSEDFAVYYCQQYGSLPFTFGQGTRLEIK ?
-- reply ~0.4 µg/mL
